Ref: patent US20190388421A1

biological target: human GPCR sphingosine 1-phosphate receptor 5 (S1PR5) (Homo sapiens); construct: host or cells: CHO; assay: S1PR5 selectivity assay (Ca2+ flux, antagonist, S1PR5 specific agonist trigger); type: cell-based; conditions: S1P5 antagonist EC50, CHO cells overexpressing human S1PR5 and Gq protein
Sequence (Q9H228 whole entry): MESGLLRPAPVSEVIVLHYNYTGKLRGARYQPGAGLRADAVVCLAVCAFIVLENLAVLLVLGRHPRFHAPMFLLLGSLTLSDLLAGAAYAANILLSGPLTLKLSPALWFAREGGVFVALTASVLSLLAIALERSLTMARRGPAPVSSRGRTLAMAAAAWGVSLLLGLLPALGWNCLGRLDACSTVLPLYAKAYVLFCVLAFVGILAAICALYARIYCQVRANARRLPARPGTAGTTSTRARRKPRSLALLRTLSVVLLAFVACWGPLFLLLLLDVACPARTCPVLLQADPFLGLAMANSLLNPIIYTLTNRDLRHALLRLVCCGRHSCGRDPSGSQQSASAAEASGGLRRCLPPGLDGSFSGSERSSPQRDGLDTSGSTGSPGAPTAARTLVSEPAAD
pEC50: −log10 of the molar value.
Outcome Measure: pEC50

compound=Cc1cc(CNC(=O)Nc2cnc(Cl)c(OCC(F)F)c2)nnc1-c1cn(C)nc1C(F)(F)F experimental_target="human GPCR sphingosine 1-phosphate receptor 5 (S1PR5) (Homo sapiens)" comparison_symbol=≤ recorded_result=4.70
compound=Cc1cc(NC(=O)NCc2cc(C)c(-c3cn(C)nc3C(F)(F)F)nn2)cc(OCC(F)F)n1 experimental_target="human GPCR sphingosine 1-phosphate receptor 5 (S1PR5) (Homo sapiens)" comparison_symbol== recorded_result=5.54
compound=CCOc1nc(C)cc(NC(=O)NCc2cc(C)c(-c3cn(C)nc3C(F)(F)F)nn2)c1C experimental_target="human GPCR sphingosine 1-phosphate receptor 5 (S1PR5) (Homo sapiens)" comparison_symbol== recorded_result=4.96
compound=Cc1cc(CNC(=O)Nc2cc(C#N)nc(OCC(F)F)c2C)nnc1-c1cn(C)nc1C(F)(F)F experimental_target="human GPCR sphingosine 1-phosphate receptor 5 (S1PR5) (Homo sapiens)" comparison_symbol== recorded_result=5.26
compound=Cc1cc(CNC(=O)Nc2cnc(OCC(F)F)c(Cl)c2)nnc1-c1cn(C)nc1C(F)(F)F experimental_target="human GPCR sphingosine 1-phosphate receptor 5 (S1PR5) (Homo sapiens)" comparison_symbol=≤ recorded_result=4.70
compound="COCC(C)Oc1cc(NC(=O)NCc2cc(C)c(-c3cn(C)nc3C(F)(F)F)nn2)cc(C(F)(F)F)n1 (stereo not shown)" experimental_target="human GPCR sphingosine 1-phosphate receptor 5 (S1PR5) (Homo sapiens)" comparison_symbol=≤ recorded_result=4.70
compound=Cn1cc(-c2nnc(CNC(=O)Nc3cc(Cl)nc(OCC(F)F)c3)cc2N2CCOCC2)c(C(F)(F)F)n1 experimental_target="human GPCR sphingosine 1-phosphate receptor 5 (S1PR5) (Homo sapiens)" comparison_symbol== recorded_result=4.96
compound=CCOc1cc(NC(=O)NCc2cc(C)c(-c3cn(COC)nc3C(F)(F)F)nn2)cc(Cl)n1 experimental_target="human GPCR sphingosine 1-phosphate receptor 5 (S1PR5) (Homo sapiens)" comparison_symbol=≤ recorded_result=4.70
compound=CCOc1nc(C(F)(F)F)cc(NC(=O)NCc2cc(C)c(-c3cn(C)nc3C(F)(F)F)nn2)c1C experimental_target="human GPCR sphingosine 1-phosphate receptor 5 (S1PR5) (Homo sapiens)" comparison_symbol== recorded_result=5.48
compound=Cn1cc(-c2nnc(CNC(=O)Nc3cc(Cl)nc(OCC(F)F)c3)cc2C2CC2)c(C(F)(F)F)n1 experimental_target="human GPCR sphingosine 1-phosphate receptor 5 (S1PR5) (Homo sapiens)" comparison_symbol== recorded_result=5.39
compound=Cc1cc(CNC(=O)Nc2cnc(OCC(F)F)c(C(F)(F)F)c2)nnc1-c1cn(C)nc1C(F)(F)F experimental_target="human GPCR sphingosine 1-phosphate receptor 5 (S1PR5) (Homo sapiens)" comparison_symbol=≤ recorded_result=4.70
compound=Cn1cc(-c2nnc(CNC(=O)Nc3cc(Cl)nc(OCC(F)F)c3)cc2N2CC(F)(F)C2)c(C(F)(F)F)n1 experimental_target="human GPCR sphingosine 1-phosphate receptor 5 (S1PR5) (Homo sapiens)" comparison_symbol== recorded_result=5.18
compound=Cc1cc(CNC(=O)Nc2ccnc(Cl)c2)nnc1-c1cn(C)nc1C(F)(F)F experimental_target="human GPCR sphingosine 1-phosphate receptor 5 (S1PR5) (Homo sapiens)" comparison_symbol=≤ recorded_result=4.70
compound=CN(C)Cc1cc(CNC(=O)Nc2cc(Cl)nc(OCC(F)F)c2)nnc1-c1cn(C)nc1C(F)(F)F experimental_target="human GPCR sphingosine 1-phosphate receptor 5 (S1PR5) (Homo sapiens)" comparison_symbol=≤ recorded_result=4.70
compound=Cc1cc(CNC(=O)Nc2cc(N3CC(F)(F)C3)nc(C(F)(F)F)c2)nnc1-c1cn(C)nc1C(F)(F)F experimental_target="human GPCR sphingosine 1-phosphate receptor 5 (S1PR5) (Homo sapiens)" comparison_symbol=≤ recorded_result=4.70
compound=CCOc1cc(NC(=O)NCc2cc(C)c(-c3cnn(C)c3C)nn2)cc(C(F)(F)F)n1 experimental_target="human GPCR sphingosine 1-phosphate receptor 5 (S1PR5) (Homo sapiens)" comparison_symbol=≤ recorded_result=4.70
compound=CCOc1ncc(NC(=O)NCc2cc(C)c(-c3cn(C)nc3C(F)(F)F)nn2)cc1Cl experimental_target="human GPCR sphingosine 1-phosphate receptor 5 (S1PR5) (Homo sapiens)" comparison_symbol=≤ recorded_result=4.70
compound="CCOc1cc(NC(=O)NC(C)c2cc(C)c(-c3cn(C)nc3C(F)(F)F)nn2)cc(Cl)n1 (stereo not shown)" experimental_target="human GPCR sphingosine 1-phosphate receptor 5 (S1PR5) (Homo sapiens)" comparison_symbol== recorded_result=5.18
compound=Cc1cc(CNC(=O)Nc2ccnc(C(F)(F)F)c2)nnc1-c1cn(C)nc1C(F)(F)F experimental_target="human GPCR sphingosine 1-phosphate receptor 5 (S1PR5) (Homo sapiens)" comparison_symbol=≤ recorded_result=4.70
compound=CCOc1cc(NC(=O)NCc2cc(C)c(-c3cn(C)nc3C(F)(F)F)nn2)cc(C)n1 experimental_target="human GPCR sphingosine 1-phosphate receptor 5 (S1PR5) (Homo sapiens)" comparison_symbol=≤ recorded_result=4.70
compound="CCOc1nc(C(F)(F)F)cc(NC(=O)NC(C)c2cc(C)c(-c3cn(C)nc3C(F)(F)F)nn2)c1C (stereo not shown)" experimental_target="human GPCR sphingosine 1-phosphate receptor 5 (S1PR5) (Homo sapiens)" comparison_symbol== recorded_result=5.18
compound=CCOc1nc(Cl)cc(NC(=O)NCc2cc(C)c(-c3cn(C)nc3C(F)(F)F)nn2)c1C experimental_target="human GPCR sphingosine 1-phosphate receptor 5 (S1PR5) (Homo sapiens)" comparison_symbol== recorded_result=5.68
compound="Cc1cc(CNC(=O)Nc2cc(OCC(O)CO)nc(C(F)(F)F)c2)nnc1-c1cn(C)nc1C(F)(F)F (stereo not shown)" experimental_target="human GPCR sphingosine 1-phosphate receptor 5 (S1PR5) (Homo sapiens)" comparison_symbol=≤ recorded_result=4.70
compound=Cc1cc(NC(=NC#N)NCc2cc(C)c(-c3cn(C)nc3C(F)(F)F)nn2)c(C)c(OCC(F)F)n1 experimental_target="human GPCR sphingosine 1-phosphate receptor 5 (S1PR5) (Homo sapiens)" comparison_symbol=≤ recorded_result=4.70
compound=CCOc1nc(Cl)cc(NC(=O)NCc2cc(C)c(-c3cn(C)nc3C(F)(F)F)nn2)n1 experimental_target="human GPCR sphingosine 1-phosphate receptor 5 (S1PR5) (Homo sapiens)" comparison_symbol=≤ recorded_result=4.70
compound=CCOc1cc(NC(=O)NCc2cc(C)c(-c3cn(C)nc3C(F)(F)F)nn2)cc(Cl)n1 experimental_target="human GPCR sphingosine 1-phosphate receptor 5 (S1PR5) (Homo sapiens)" comparison_symbol== recorded_result=5.34
compound=Cc1cc(CNC(=O)Nc2cc(Cl)nc(OCC(F)F)c2)nnc1N1CC(S(C)(=O)=O)C1 experimental_target="human GPCR sphingosine 1-phosphate receptor 5 (S1PR5) (Homo sapiens)" comparison_symbol=≤ recorded_result=4.70
compound=Cc1cc(CNC(=O)Nc2cc(Cl)nc(OCC(F)F)c2C)nnc1-c1cn(C)nc1C(F)(F)F experimental_target="human GPCR sphingosine 1-phosphate receptor 5 (S1PR5) (Homo sapiens)" comparison_symbol== recorded_result=5.44
compound=COCCOc1cc(NC(=O)NCc2cc(C)c(-c3cn(C)nc3C(F)(F)F)nn2)cc(C(F)(F)F)n1 experimental_target="human GPCR sphingosine 1-phosphate receptor 5 (S1PR5) (Homo sapiens)" comparison_symbol=≤ recorded_result=4.70
compound="CCOc1cc(NC(=O)NCc2cc(C)c(N3CC(C)OC(C)C3)nn2)cc(Cl)n1 (stereo not shown)" experimental_target="human GPCR sphingosine 1-phosphate receptor 5 (S1PR5) (Homo sapiens)" comparison_symbol== recorded_result=6.47
compound=Cc1cc(CNC(=O)Nc2cc(OCC(F)F)nc(N3CC(F)(F)C3)c2)nnc1-c1cn(C)nc1C(F)(F)F experimental_target="human GPCR sphingosine 1-phosphate receptor 5 (S1PR5) (Homo sapiens)" comparison_symbol=≤ recorded_result=4.70
